# study target: Cytoplasmic tyrosine-protein kinase BMX (Homo sapiens) (UniProt P51813);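 note: reported value is the mean percent inhibition of BMX, from the GSK PKIS kinase inhibitor screen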
# Sequence (P51813 whole entry): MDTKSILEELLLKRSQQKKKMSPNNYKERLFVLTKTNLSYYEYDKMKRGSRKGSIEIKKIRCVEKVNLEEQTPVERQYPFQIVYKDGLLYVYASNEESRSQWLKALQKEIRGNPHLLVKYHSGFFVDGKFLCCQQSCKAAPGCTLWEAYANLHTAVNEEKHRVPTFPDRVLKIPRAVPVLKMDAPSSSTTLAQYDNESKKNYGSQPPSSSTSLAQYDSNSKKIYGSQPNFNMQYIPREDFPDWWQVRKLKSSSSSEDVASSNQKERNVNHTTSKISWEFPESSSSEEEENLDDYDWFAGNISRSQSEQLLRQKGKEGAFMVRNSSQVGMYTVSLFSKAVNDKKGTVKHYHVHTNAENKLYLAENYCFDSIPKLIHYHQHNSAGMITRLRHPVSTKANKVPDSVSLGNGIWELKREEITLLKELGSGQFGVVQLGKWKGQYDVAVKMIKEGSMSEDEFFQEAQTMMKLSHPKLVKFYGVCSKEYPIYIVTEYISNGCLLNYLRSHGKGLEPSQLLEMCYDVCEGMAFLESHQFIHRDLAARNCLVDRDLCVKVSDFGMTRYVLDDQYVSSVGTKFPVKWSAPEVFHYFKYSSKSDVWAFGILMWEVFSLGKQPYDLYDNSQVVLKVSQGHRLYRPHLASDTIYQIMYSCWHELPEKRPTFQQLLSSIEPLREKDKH
# settings: at 1 µM
measure: inhibition (%)
Respond numerically; units are % and should not be typed.

[
  {
    "cpd smiles": "NC(=O)c1ccc(-c2nc(-c3ccccn3)c(-c3ccc4c(c3)OCO4)[nH]2)cc1",
    "inhibition / %": 2.22
  }
]

*Q* Give its inhibition value. Item: "COc1ccc(-c2coc3ncnc(N)c23)cc1"
*A* 6.07

*Q* What inhibition value was documented for this compound, "CCn1c(-c2nonc2N)nc2cncc(C(=O)N3CCNCC3)c21" ?
*A* 8.89

* * *

Quick reference for inhibition among some molecules
# study target: Protein kinase C eta type (Homo sapiens) (UniProt P24723);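 note: values are the mean percent inhibition of PKC-eta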
# Sequence (P24723 whole entry): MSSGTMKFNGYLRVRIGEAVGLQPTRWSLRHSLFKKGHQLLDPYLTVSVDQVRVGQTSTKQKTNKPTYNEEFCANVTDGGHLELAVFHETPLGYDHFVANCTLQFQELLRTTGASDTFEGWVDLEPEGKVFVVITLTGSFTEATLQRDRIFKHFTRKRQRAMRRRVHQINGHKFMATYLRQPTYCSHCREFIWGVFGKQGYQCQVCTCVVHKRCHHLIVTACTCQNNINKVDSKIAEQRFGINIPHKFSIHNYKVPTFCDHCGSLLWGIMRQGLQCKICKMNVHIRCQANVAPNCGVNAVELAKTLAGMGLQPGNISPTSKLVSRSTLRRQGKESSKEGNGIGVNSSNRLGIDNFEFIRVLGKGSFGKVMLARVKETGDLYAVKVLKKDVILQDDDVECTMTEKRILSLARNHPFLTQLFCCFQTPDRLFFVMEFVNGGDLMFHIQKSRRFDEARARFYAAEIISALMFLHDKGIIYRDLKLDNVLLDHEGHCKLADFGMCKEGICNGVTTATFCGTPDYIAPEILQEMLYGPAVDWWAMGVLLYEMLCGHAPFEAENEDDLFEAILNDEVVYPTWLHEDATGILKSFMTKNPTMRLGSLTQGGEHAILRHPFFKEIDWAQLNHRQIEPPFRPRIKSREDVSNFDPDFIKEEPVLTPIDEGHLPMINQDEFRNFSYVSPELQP
# settings: at 0.1 µM
Please give a number only; it is taken to be in %.

// worked examples, inhibition included
[
  {
    "cpd smiles": "O=C1Nc2ccc(C(=O)c3ccco3)cc2C1=Cc1cc(Cl)c(O)c(Cl)c1",
    "inhibition (%)": 4.29
  },
  {
    "cpd smiles": "CCn1c(-c2nonc2N)nc2cncc(C(=O)N3CCNCC3)c21",
    "inhibition (%)": 6.14
  },
  {
    "cpd smiles": "O=C1NC(=O)C(c2ccccc2Cl)=C1Nc1cccc(O)c1",
    "inhibition (%)": 2.05
  }
]

*Q* Give its inhibition value. Item: "O=C(Nc1n[nH]c2nc(-c3ccco3)c(Br)cc12)C1CC1"
*A* 3.62

*Q* I would be grateful if you could share the reported inhibition for "CCn1c(-c2nonc2N)nc2ccncc21" .
*A* 1.11

*Q* For the molecule shown here, "COc1ccc(COc2ccc(Cc3cnc(N)nc3N)cc2OC)cc1" , give the reported inhibition.
*A* 1.31

* * *

# study target: Tyrosine-protein kinase Fgr (Homo sapiens) (UniProt P09769);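 note: reported values are mean percent inhibition of FGR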
# Sequence (P09769 2-529 limits assumed): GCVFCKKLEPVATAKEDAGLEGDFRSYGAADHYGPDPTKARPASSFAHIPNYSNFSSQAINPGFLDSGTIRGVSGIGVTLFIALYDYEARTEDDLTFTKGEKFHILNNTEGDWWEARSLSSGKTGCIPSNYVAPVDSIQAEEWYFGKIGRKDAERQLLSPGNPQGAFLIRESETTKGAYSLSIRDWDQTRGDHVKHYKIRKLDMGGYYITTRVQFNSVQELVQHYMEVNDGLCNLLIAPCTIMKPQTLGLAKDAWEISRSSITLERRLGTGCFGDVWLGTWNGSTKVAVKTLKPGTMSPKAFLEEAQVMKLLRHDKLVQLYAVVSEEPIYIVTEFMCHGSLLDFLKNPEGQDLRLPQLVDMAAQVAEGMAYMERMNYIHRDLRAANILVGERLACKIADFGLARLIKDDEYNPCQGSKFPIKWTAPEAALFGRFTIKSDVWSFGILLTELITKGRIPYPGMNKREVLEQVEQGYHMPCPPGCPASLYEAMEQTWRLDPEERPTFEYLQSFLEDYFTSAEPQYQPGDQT
# settings: at 0.1 µM
Measured inhibition, listed per entry.
Numbers only here, please. The scale is %.

Worked examples, 4 compounds total:
[
  {
    "cpd smiles": "NC(=O)c1cccc(Nc2nccc(Nc3cccc4[nH]ncc34)n2)c1",
    "measure": "inhibition",
    "reported value": 53.6
  },
  {
    "cpd smiles": "COc1ccc(-c2coc3ncnc(N)c23)cc1",
    "measure": "inhibition",
    "reported value": 0.55
  },
  {
    "cpd smiles": "CNC(=O)c1cncc(/C=C/c2c(Cl)cccc2Cl)c1",
    "measure": "inhibition",
    "reported value": 3.11
  },
  {
    "cpd smiles": "CCn1c(-c2nonc2N)nc2c(C#CC(C)(C)O)nc(OC[C@@H](N)c3ccccc3)cc21",
    "measure": "inhibition",
    "reported value": 5
  }
]

*Q* Request the reported inhibition associated with "CCc1cccc(NC(=O)Nc2ccc(Oc3ccc4nc(NC(=O)OC)[nH]c4c3)cc2)c1"
*A* 5.68

*Q* Reported inhibition, compound "c1cnn2ncc(-c3ccnc(Nc4ccc5c(c4)OCCO5)n3)c2c1" : ____
*A* 4.29

*Q* May I ask what inhibition has been recorded for "CCN1CCC(CC(=O)Nc2n[nH]c3nc(-c4cccs4)c(Br)cc23)CC1" ?
*A* -0.94

*Q* Look at this compound and give its reported inhibition. "CC(=O)Nc1cccc(C#Cc2cncnc2Nc2ccc(OCc3cccc(F)c3)c(Cl)c2)n1"
*A* 4.5

*Q* For the compound "NS(=O)(=O)c1ccc(N/N=C2\C(=O)Nc3ccc(C(=O)NCCc4c[nH]cn4)cc32)cc1" , what inhibition is on record?
*A* 4.54

*Q* Request the reported inhibition associated with "CCCN1CCC=C(c2ccc(Nc3nc(Nc4ccccc4C(N)=O)c4cc[nH]c4n3)c(C)c2)C1"
*A* -0.56

Ref: ChEMBL document CHEMBL1961873
